Data credit: patent US9499492B2

Molecular target: CDK2/CycE (Homo sapiens (Human), UniProt P24941)
Assay: CDK2/CycE kinase assay (Method 2)
Details: 10 μM ATP
pIC50: −log10 of the molar value.
# Lookup of reported pIC50 keyed by entry
Attribute measured: pIC50

Compound: CS(=O)(Cc1cc(Nc2ncc(F)c(-c3ccc(F)cc3F)n2)cc(S(F)(F)(F)(F)F)c1)=NC#N (single isomer, unassigned) [Example 30]
Tested target: CDK2/CycE (Homo sapiens (Human), UniProt P24941)
Attribute measured: pIC50
Data value: 5.82
//
Compound: CS(=O)(Cc1cc(Nc2ncc(F)c(-c3ccc(F)cc3F)n2)cc(C(F)(F)F)c1)=NC#N (racemic) [Example 1]
Tested target: CDK2/CycE (Homo sapiens (Human), UniProt P24941)
Attribute measured: pIC50
Data value: 5.85
//
Compound: COc1cc(CS(C)(=O)=NC#N)cc(Nc2ncc(F)c(-c3ccc(F)cc3F)n2)c1 (racemic)
Tested target: CDK2/CycE (Homo sapiens (Human), UniProt P24941)
Attribute measured: pIC50
Data value: 6.64
//
Compound: CS(=O)(Cc1cc(Br)cc(Nc2ncc(F)c(-c3ccc(F)cc3F)n2)c1)=NC#N (single isomer, unassigned) [Example 39]
Tested target: CDK2/CycE (Homo sapiens (Human), UniProt P24941)
Attribute measured: pIC50
Data value: 6.37
//
Compound: COCCS(=O)(Cc1cc(Nc2ncc(F)c(-c3ccc(F)cc3F)n2)cc(C(F)(F)F)c1)=NC#N (racemic)
Tested target: CDK2/CycE (Homo sapiens (Human), UniProt P24941)
Attribute measured: pIC50
Data value: 5.92
//
Compound: N=S(=O)(CCN)Cc1cc(Nc2ncc(F)c(-c3ccc(F)cc3F)n2)cc(C(F)(F)F)c1 (single isomer, unassigned) [Example 27]
Tested target: CDK2/CycE (Homo sapiens (Human), UniProt P24941)
Attribute measured: pIC50
Data value: 5.96
